# credit: ChEMBL document CHEMBL1156106

Recorded measurements of Activity, one per entry
Tested on: Rattus norvegicus
Experiment: Effect on behavioural activity in rat assessed as cocaine-induced lever response at 2.5 mg/kg, ip pretreated with cocaine for 30 mins by drug-discrimination studies
Assay type: functional
Settings: route intraperitoneal

{"compound": "CC(NC(C)(C)C)C(=O)c1cccc(Br)c1 (stereo unspecified)", "unit-abbrev": "%", "Activity": 0.3}
{"compound": "CCC(NC(C)(C)C)C(=O)c1ccc(Cl)c(Cl)c1 (stereo unspecified)", "unit-abbrev": "%", "Activity": 33.3}
{"compound": "CCCC(NC(C)(C)C)C(=O)c1ccc(Cl)c(Cl)c1 (stereo unspecified)", "unit-abbrev": "%", "Activity": 41.8}
{"compound": "CC(NC(C)(C)C)C(=O)c1cc(F)cc(F)c1 (stereo unspecified)", "unit-abbrev": "%", "Activity": 0}
{"compound": "CC(NC1CCCC1)C(=O)c1cccc(Cl)c1 (stereo unspecified)", "unit-abbrev": "%", "Activity": 23.9}
{"compound": "CCCCC(NC(C)(C)C)C(=O)c1cccc(Cl)c1 (stereo unspecified)", "unit-abbrev": "%", "Activity": 0}

###

Target: Sodium-dependent noradrenaline transporter (Homo sapiens, UniProt P23975)
Sequence (P23975 whole entry): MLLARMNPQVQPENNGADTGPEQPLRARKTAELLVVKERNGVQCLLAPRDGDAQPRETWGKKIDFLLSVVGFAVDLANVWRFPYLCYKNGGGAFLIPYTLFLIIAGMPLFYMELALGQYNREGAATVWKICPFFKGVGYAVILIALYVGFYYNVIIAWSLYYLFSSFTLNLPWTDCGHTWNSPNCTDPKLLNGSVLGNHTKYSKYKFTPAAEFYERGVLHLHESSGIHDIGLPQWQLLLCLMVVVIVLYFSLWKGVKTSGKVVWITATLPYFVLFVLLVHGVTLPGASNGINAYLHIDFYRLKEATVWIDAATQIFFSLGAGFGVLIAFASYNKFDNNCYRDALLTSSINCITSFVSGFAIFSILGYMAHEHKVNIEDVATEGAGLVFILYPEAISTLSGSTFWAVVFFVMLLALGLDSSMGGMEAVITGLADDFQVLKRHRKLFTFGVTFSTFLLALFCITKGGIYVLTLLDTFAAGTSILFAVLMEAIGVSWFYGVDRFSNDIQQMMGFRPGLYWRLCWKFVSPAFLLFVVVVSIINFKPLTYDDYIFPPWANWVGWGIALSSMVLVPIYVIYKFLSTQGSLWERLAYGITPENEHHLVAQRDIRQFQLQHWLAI
Recorded measurements of Ki, one per entry
observation-type: Ki

{"compound": "CC(C)(C)NC(CCC1CCCCC1)C(=O)c1cccc(Cl)c1 (stereo not drawn)", "result": "3.8 µM"}
{"compound": "Cc1cccc(C(=O)C(C)NC(C)(C)C)c1 (stereo not drawn)", "result": "> 10 µM"}
{"compound": "CC(NC(C)(C)C)C(=O)c1cc(F)cc(F)c1 (stereo not drawn)", "result": "> 10 µM"}
{"compound": "CC(NC(C)(C)C)C(=O)c1ccc(F)c(F)c1 (stereo not drawn)", "result": "> 10 µM"}
{"compound": "CC(C)CC(NC(C)(C)C)C(=O)c1cccc(Cl)c1 (stereo not drawn)", "result": "2.3 µM"}
{"compound": "CC(C)(C)NC1CCc2ccc(Cl)cc2C1=O (stereo not drawn)", "result": "> 10 µM"}
{"compound": "CC(NC(C)(C)C)C(=O)c1ccc(Br)cc1 (stereo not drawn)", "result": "> 10 µM"}
{"compound": "CC(CNC(C)(C)C)C(=O)c1cccc(Cl)c1 (stereo not drawn)", "result": "> 10 µM"}
{"compound": "CC(NC(C)(C)C)C(=O)c1cccc(Br)c1 (stereo not drawn)", "result": "> 7.14 µM"}
{"compound": "CC(NC(C)(C)C)C(=O)c1cccc(F)c1 (stereo not drawn)", "result": "> 10 µM"}
{"compound": "CC(C)NC(C)C(=O)c1cccc(Cl)c1 (stereo not drawn)", "result": "> 10 µM"}
{"compound": "CCCNC(C)C(=O)c1cccc(Cl)c1 (stereo not drawn)", "result": "> 10 µM"}
{"compound": "CC1C(=O)c2cc(Cl)ccc2CN1C(C)(C)C (stereo not drawn)", "result": "> 10 µM"}

###

Recorded measurements of ED50, one per entry
Tested on: Rattus norvegicus
Assay: Effect on behavioural activity in ip dosed rat assessed as cocaine-induced lever response pretreated with cocaine by drug-discrimination studies
Format: functional
observation-type: ED50 (mg/kg)

{"compound": "CC(C)NC(C)C(=O)c1cccc(Cl)c1 (centres undefined)", "experimental-target": "Rattus norvegicus", "unit-abbrev": "mg/kg", "recorded-number": 8.8}
{"compound": "CC(NC1CCCC1)C(=O)c1cccc(Cl)c1 (centres undefined)", "experimental-target": "Rattus norvegicus", "unit-abbrev": "mg/kg", "recorded-number": 10.9}
{"compound": "CCC(NC(C)(C)C)C(=O)c1ccc(Cl)c(Cl)c1 (centres undefined)", "experimental-target": "Rattus norvegicus", "unit-abbrev": "mg/kg", "recorded-number": 6.3}
{"compound": "Cc1ccc(C(=O)C(C)NC(C)(C)C)cc1 (centres undefined)", "experimental-target": "Rattus norvegicus", "unit-abbrev": "mg/kg", "recorded-number": 17.3}
